Value source: PubChem BioAssay AID2060900

Tested on: 521955-158-R2-J5-PDC complex spheroids, viability
Test: Anticancer human tumor 521955-158-R2-J5-PDC patient-derived pancreatic carcinoma cell line growth inhibition [RAS]
Details: second compound 1 µM; first compound 1 µM; active compounds read low

| molecule | system | viability, T/C / % |
| --- | --- | --- |
| C=CC(=O)Nc1cc(Nc2nccc(-c3cn(C)c4ccccc34)n2)c(OC)cc1N(C)CCN(C)C + C=CC(=O)N1CCN(c2nc(OCC3CCCN3C)nc3c(F)c(-c4nc(N)cc(C)c4C(F)(F)F)c(Cl)cc23)C(C)C1 | 521955-158-R2-J5-PDC complex spheroids, viability | 42.1 |
| O=C(c1ccc(F)c(F)c1Nc1ccc(I)cc1F)N1CC(O)([C@@H]2CCCCN2)C1 + C#Cc1c(F)ccc2cc(O)cc(-c3ncc4c(N5CC6CCC(C5)N6)nc(OCC56CCCN5CC(F)C6)nc4c3F)c12 | 521955-158-R2-J5-PDC complex spheroids, viability | 12.4 |
| CCN1CCN(Cc2ccc(Nc3ncc(F)c(-c4cc(F)c5nc(C)n(C(C)C)c5c4)n3)nc2)CC1 + C#Cc1c(F)ccc2cc(O)cc(-c3ncc4c(N5CC6CCC(C5)N6)nc(OCC56CCCN5CC(F)C6)nc4c3F)c12 | 521955-158-R2-J5-PDC complex spheroids, viability | 56.1 |
| Cc1nc(N2CCC3(CC2)COC(C)C3N)c(CO)nc1Sc1ccnc(N)c1Cl (stereo not given) + C=CC(=O)N1CCN(c2nc(OCC3CCCN3C)nc3c(F)c(-c4nc(N)cc(C)c4C(F)(F)F)c(Cl)cc23)C(C)C1 | 521955-158-R2-J5-PDC complex spheroids, viability | 62.6 |
| CCC(CC)c1cc(NC2CCC(N)C2)n2nccc2n1 (stereo not given) + C=CC(=O)N1CCN(c2nc(OCC3CCCN3C)nc3c(F)c(-c4nc(N)cc(C)c4C(F)(F)F)c(Cl)cc23)C(C)C1 | 521955-158-R2-J5-PDC complex spheroids, viability | 110 |

###

Listed next: entries and their corresponding viability, T/C.
System: 521955-158-R2-J5-PDC complex spheroids, viability
Assay: Anticancer human tumor 521955-158-R2-J5-PDC cell line growth inhibition [RAS];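 note: spheroids also contain HUVEC endothelial cells and mesenchymal stem cells as stroma; compound exposure lasted seven days before the viability read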
Conditions: second compound 0.1 µM; first compound 0.0949 µM; active compounds read low

| compound | viability, T/C / % |
| --- | --- |
| CCc1c2c(nc3ccc(O)cc13)-c1cc3c(c(=O)n1C2)COC(=O)[C@]3(O)CC + C=CC(=O)N1CCN(c2nc(OCC3CCCN3C)nc3c(F)c(-c4nc(N)cc(C)c4C(F)(F)F)c(Cl)cc23)C(C)C1 | 6.92 |
| CC1(C)CCC(Nc2ncc(C(F)(F)F)c(-c3c[nH]c4c(P(C)(C)=O)c(C#N)ccc34)n2)CN1 (centres undefined) + C#Cc1c(F)ccc2cc(O)cc(-c3ncc4c(N5CC6CCC(C5)N6)nc(OCC56CCCN5CC(F)C6)nc4c3F)c12 | 39.7 |
| CC1(C)CCC(Nc2ncc(C(F)(F)F)c(-c3c[nH]c4c(P(C)(C)=O)c(C#N)ccc34)n2)CN1 (centres undefined) + C=CC(=O)N1CCN(c2nc(OCC3CCCN3C)nc3c(F)c(-c4nc(N)cc(C)c4C(F)(F)F)c(Cl)cc23)C(C)C1 | 65.8 |
| CCc1c2c(nc3ccc(O)cc13)-c1cc3c(c(=O)n1C2)COC(=O)[C@]3(O)CC + C#Cc1c(F)ccc2cc(O)cc(-c3ncc4c(N5CC6CCC(C5)N6)nc(OCC56CCCN5CC(F)C6)nc4c3F)c12 | 11.4 |

###

System: 521955-158-R2-J5-PDC complex spheroids, viability
Test: Anticancer human tumor 521955-158-R2-J5-PDC cell line growth inhibition [RAS];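 note: spheroids also contain HUVEC endothelial cells and mesenchymal stem cells as stroma; compound exposure lasted seven days before the viability read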
Conditions: second compound 0.316 µM; first compound 0.0316 µM; active compounds read low
Source text: RAS pathway inhibitors in Combinations in Complex Spheroids A high-throughput screen of multi-cell type tumor spheroids was designed to identify active combinations of RAS pathway inhibitors and targeted small molecules. Complex spheroids include a stromal component modeled by human endothelial cells (HUVEC) and fibroblasts modeled by human mesenchymal stem cells (MSCs). […] Compounds. […] If the clinical Cmax for an agent had not been determined, the highest concentration tested was 10 microM. […]
Listed next: entries and their corresponding viability, T/C.

| molecule | viability, T/C / % |
| --- | --- |
| C=CC(=O)Nc1cc(Nc2nccc(-c3cn(C)c4ccccc34)n2)c(OC)cc1N(C)CCN(C)C + C=CC(=O)N1CCN(c2nc(OCC3CCCN3C)nc3c(F)c(-c4nc(N)cc(C)c4C(F)(F)F)c(Cl)cc23)C(C)C1 | 95.9 |
| CCN1CCN(Cc2ccc(Nc3ncc(F)c(-c4cc(F)c5nc(C)n(C(C)C)c5c4)n3)nc2)CC1 + C=CC(=O)N1CCN(c2nc(OCC3CCCN3C)nc3c(F)c(-c4nc(N)cc(C)c4C(F)(F)F)c(Cl)cc23)C(C)C1 | 80.9 |
| NC1c2ccccc2OC12CCN(c1cnc3c(N4CCCc5ncccc54)n[nH]c3n1)CC2 (stereo not given) + C=CC(=O)N1CCN(c2nc(OCC3CCCN3C)nc3c(F)c(-c4nc(N)cc(C)c4C(F)(F)F)c(Cl)cc23)C(C)C1 | 75.4 |
| CCN1CCN(Cc2ccc(Nc3ncc(F)c(-c4cc(F)c5nc(C)n(C(C)C)c5c4)n3)nc2)CC1 + C#Cc1c(F)ccc2cc(O)cc(-c3ncc4c(N5CC6CCC(C5)N6)nc(OCC56CCCN5CC(F)C6)nc4c3F)c12 | 46.9 |
| CCC(CC)c1cc(NC2CCC(N)C2)n2nccc2n1 (stereo not given) + C#Cc1c(F)ccc2cc(O)cc(-c3ncc4c(N5CC6CCC(C5)N6)nc(OCC56CCCN5CC(F)C6)nc4c3F)c12 | 56.4 |
| NC1c2ccccc2OC12CCN(c1cnc3c(N4CCCc5ncccc54)n[nH]c3n1)CC2 (stereo not given) + C#Cc1c(F)ccc2cc(O)cc(-c3ncc4c(N5CC6CCC(C5)N6)nc(OCC56CCCN5CC(F)C6)nc4c3F)c12 | 44 |
| CC(Nc1ccc2c(c1)OCCn1cc(N3C(=O)OCC3C(F)F)nc1-2)C(N)=O (stereo not given) + C#Cc1c(F)ccc2cc(O)cc(-c3ncc4c(N5CC6CCC(C5)N6)nc(OCC56CCCN5CC(F)C6)nc4c3F)c12 | 48.1 |
| Cc1nc(N2CCC3(CC2)COC(C)C3N)c(CO)nc1Sc1ccnc(N)c1Cl (stereo not given) + C=CC(=O)N1CCN(c2nc(OCC3CCCN3C)nc3c(F)c(-c4nc(N)cc(C)c4C(F)(F)F)c(Cl)cc23)C(C)C1 | 100 |
| CC(C)n1nc(-c2ccc3oc(N)nc3c2)c2c(N)ncnc21 + C#Cc1c(F)ccc2cc(O)cc(-c3ncc4c(N5CC6CCC(C5)N6)nc(OCC56CCCN5CC(F)C6)nc4c3F)c12 | 13.6 |
| O=C(c1ccc(F)c(F)c1Nc1ccc(I)cc1F)N1CC(O)([C@@H]2CCCCN2)C1 + C#Cc1c(F)ccc2cc(O)cc(-c3ncc4c(N5CC6CCC(C5)N6)nc(OCC56CCCN5CC(F)C6)nc4c3F)c12 | 38.4 |

###

Test system: 521955-158-R2-J5-PDC complex spheroids, viability
Assay: Anticancer human tumor 521955-158-R2-J5-PDC cell line growth inhibition [RAS];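 note: spheroids also contain HUVEC endothelial cells and mesenchymal stem cells as stroma; compound exposure lasted seven days before the viability read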
Details: second compound 0.0949 µM; first compound 3.16 µM; active compounds read low
Listed next: entries and their corresponding viability, T/C.

| molecule | system | viability, T/C |
| --- | --- | --- |
| CCC(CC)c1cc(NC2CCC(N)C2)n2nccc2n1 (stereo not drawn) + CCn1c(-c2cc(N3CCN(C)CC3)cnc2C(C)OC)c2c3cc(ccc31)-c1csc(n1)CC(NC(=O)C1CC1C)C(=O)N1CCCC(N1)C(=O)OCC(C)(C)C2 | 521955-158-R2-J5-PDC complex spheroids, viability | 9.07% |
| CCC(CC)c1cc(NC2CCC(N)C2)n2nccc2n1 (stereo not drawn) + CCn1c(-c2cccnc2C(C)OC)c2c3cc(ccc31)N1CCOC(CC(NC(=O)C(C(C)C)N(C)C(=O)C3(F)CCN(C(=O)C#CC(C)(C)N(C)C)CC3)C(=O)N3CCCC(N3)C(=O)OCC(C)(C)C2)C1 | 521955-158-R2-J5-PDC complex spheroids, viability | 6.48% |
| Cc1nc(N2CCC3(CC2)COC(C)C3N)c(CO)nc1Sc1ccnc(N)c1Cl (stereo not drawn) + CCn1c(-c2cccnc2C(C)OC)c2c3cc(ccc31)N1CCOC(CC(NC(=O)C(C(C)C)N(C)C(=O)C3(F)CCN(C(=O)C#CC(C)(C)N(C)C)CC3)C(=O)N3CCCC(N3)C(=O)OCC(C)(C)C2)C1 | 521955-158-R2-J5-PDC complex spheroids, viability | 55% |
| NC1c2ccccc2OC12CCN(c1cnc3c(N4CCCc5ncccc54)n[nH]c3n1)CC2 (stereo not drawn) + CCn1c(-c2cccnc2C(C)OC)c2c3cc(ccc31)N1CCOC(CC(NC(=O)C(C(C)C)N(C)C(=O)C3(F)CCN(C(=O)C#CC(C)(C)N(C)C)CC3)C(=O)N3CCCC(N3)C(=O)OCC(C)(C)C2)C1 | 521955-158-R2-J5-PDC complex spheroids, viability | 56.5% |
| CC(C)NCC(C(=O)N1CCN(c2ncnc3c2C(C)CC3O)CC1)c1ccc(Cl)cc1 (stereo not drawn) + CCn1c(-c2cc(N3CCN(C)CC3)cnc2C(C)OC)c2c3cc(ccc31)-c1csc(n1)CC(NC(=O)C1CC1C)C(=O)N1CCCC(N1)C(=O)OCC(C)(C)C2 | 521955-158-R2-J5-PDC complex spheroids, viability | 4.83% |
| Cc1nc(N2CCC3(CC2)COC(C)C3N)c(CO)nc1Sc1ccnc(N)c1Cl (stereo not drawn) + CCn1c(-c2cc(N3CCN(C)CC3)cnc2C(C)OC)c2c3cc(ccc31)-c1csc(n1)CC(NC(=O)C1CC1C)C(=O)N1CCCC(N1)C(=O)OCC(C)(C)C2 | 521955-158-R2-J5-PDC complex spheroids, viability | 11.3% |
| CC(C)NCC(C(=O)N1CCN(c2ncnc3c2C(C)CC3O)CC1)c1ccc(Cl)cc1 (stereo not drawn) + CCn1c(-c2cccnc2C(C)OC)c2c3cc(ccc31)N1CCOC(CC(NC(=O)C(C(C)C)N(C)C(=O)C3(F)CCN(C(=O)C#CC(C)(C)N(C)C)CC3)C(=O)N3CCCC(N3)C(=O)OCC(C)(C)C2)C1 | 521955-158-R2-J5-PDC complex spheroids, viability | 61.3% |
| NC1c2ccccc2OC12CCN(c1cnc3c(N4CCCc5ncccc54)n[nH]c3n1)CC2 (stereo not drawn) + CCn1c(-c2cc(N3CCN(C)CC3)cnc2C(C)OC)c2c3cc(ccc31)-c1csc(n1)CC(NC(=O)C1CC1C)C(=O)N1CCCC(N1)C(=O)OCC(C)(C)C2 | 521955-158-R2-J5-PDC complex spheroids, viability | 8% |
